Assay Overview: melting temperature; fluorescence melt of hairpins on a sequencing array, two-state fit, raised by 9.35 °C to match UV melts
Settings: sodium 0.088 M
Decision: Tm >= 50 °C yields T, all other cases yield F.

>  <Biopolymer Sequence>
GATCAGAGCTCTGATC ((((((....))))))

>  <Label Class>
T

$$$$
>  <Biopolymer Sequence>
GAATAAGGAAACTTATTC (((((((....)))))))

>  <Label Class>
F

$$$$
>  <Biopolymer Sequence>
GGAAAGGGAAACTTTTCC (((((.(....).)))))

>  <Label Class>
F

$$$$
>  <Biopolymer Sequence>
GGTGTCGAAAGACTTACC ((((((....)))..)))

>  <Label Class>
F

$$$$
>  <Biopolymer Sequence>
GTGAGGGAAACCTCAC ((((((....))))))

>  <Label Class>
T

$$$$
>  <Biopolymer Sequence>
GGTAATCGAAAGATCACC (((.(((....))).)))

>  <Label Class>
F

$$$$
>  <Biopolymer Sequence>
GATCTGAAGGCAGATC ((((((....))))))

>  <Label Class>
F

$$$$
>  <Biopolymer Sequence>
GCGAGTGGAAACGTTCGC ((((..(....)..))))

>  <Label Class>
F

$$$$
>  <Biopolymer Sequence>
GCTTTGCGAAAGCCGAGC (((..((....))..)))

>  <Label Class>
F

$$$$
>  <Biopolymer Sequence>
GGATCACGAAAGTGGTCC (((.(((....))).)))

>  <Label Class>
T

$$$$
>  <Biopolymer Sequence>
GGTACGGGAAACCGTGTC (..((((....))))..)

>  <Label Class>
F

$$$$
>  <Biopolymer Sequence>
GGGAAAGCGAAAGCTCCC (((..(((....))))))

>  <Label Class>
T

$$$$
>  <Biopolymer Sequence>
GCGGGTTGCCGC ((((....))))

>  <Label Class>
T

$$$$
>  <Biopolymer Sequence>
GGACGTGGAAACATGTCC ((((.((....)).))))

>  <Label Class>
T

$$$$
>  <Biopolymer Sequence>
GATAGCGAAAGCTCTATC ((((((....)))..)))

>  <Label Class>
F

$$$$
>  <Biopolymer Sequence>
GATCTAAAGCTAGATC ((((((....))))))

>  <Label Class>
F

$$$$
>  <Biopolymer Sequence>
GTAAACTCGAAAGAGTAC (((..(((....))))))

>  <Label Class>
F

$$$$
>  <Biopolymer Sequence>
GCGGTCTTCCGC ((((....))))

>  <Label Class>
T

$$$$
>  <Biopolymer Sequence>
GTCTGTGGAAACACGGAC (((.(((....))).)))

>  <Label Class>
T

$$$$
>  <Biopolymer Sequence>
GTATTTGCGAAAGCATAC (((..(((....))))))

>  <Label Class>
F

$$$$
>  <Biopolymer Sequence>
GTGGGTGGAAACGTCCAC ((((..(....)..))))

>  <Label Class>
F

$$$$
>  <Biopolymer Sequence>
GATTGCGGAAACGTAGTC ((.(.((....)).).))

>  <Label Class>
F

$$$$
>  <Biopolymer Sequence>
GGGCGTCGAAAGACCCCC (((.(((....))).)))

>  <Label Class>
T

$$$$
>  <Biopolymer Sequence>
GGGTCAGCGAAAGCTCCC (((..(((....))))))

>  <Label Class>
F

$$$$
>  <Biopolymer Sequence>
CGTTCGGAAACGAGTACG ((((((....)))..)))

>  <Label Class>
F

$$$$
>  <Biopolymer Sequence>
GCGGTATCCCGC ((((....))))

>  <Label Class>
T

$$$$
>  <Biopolymer Sequence>
GGGGCCTCGAAAGAGCCC (((..(((....))))))

>  <Label Class>
T

$$$$
>  <Biopolymer Sequence>
GGCACCGAAAGGTGTGCC ((((((....)))..)))

>  <Label Class>
T

$$$$
>  <Biopolymer Sequence>
GCCGCCGGAAACAGCGGC (((((.(....).)))))

>  <Label Class>
T

$$$$
>  <Biopolymer Sequence>
GCAGCAGGAAACCGCTAC (.(((.(....).))).)

>  <Label Class>
F

$$$$
>  <Biopolymer Sequence>
GATCCTTCTTAGGATC ((((((....))))))

>  <Label Class>
T

$$$$
>  <Biopolymer Sequence>
GTGCAAACGAAAGTTCAC (((..(((....))))))

>  <Label Class>
F

$$$$
>  <Biopolymer Sequence>
GTAGAACGAAAGTTGTAC (((.(((....))).)))

>  <Label Class>
F

$$$$
>  <Biopolymer Sequence>
GGACGCGAAAGCGGTCC ((((((....))).)))

>  <Label Class>
T

$$$$
>  <Biopolymer Sequence>
GGGCCCGAAAGGGTGCCC ((((((....)))..)))

>  <Label Class>
T

$$$$
>  <Biopolymer Sequence>
GCGTAGCGAAAGCCAGGC ((.(.((....)).).))

>  <Label Class>
F

$$$$
>  <Biopolymer Sequence>
GCGGGCGAAAGCCTCCGC ((((((....)))..)))

>  <Label Class>
T

$$$$
>  <Biopolymer Sequence>
GTAAGCGGAAACGTTTGC (.((.((....)).)).)

>  <Label Class>
F

$$$$
>  <Biopolymer Sequence>
GTGAACGAAAGTTCCCAC ((((((....)))..)))

>  <Label Class>
F

$$$$
>  <Biopolymer Sequence>
GATCGATCGATCGATC ((((((....))))))

>  <Label Class>
T

$$$$
>  <Biopolymer Sequence>
GGCGACGGAAACGTCGTC (.(((((....))))).)

>  <Label Class>
T

$$$$
>  <Biopolymer Sequence>
GTACGAGGAAACCCGTAC (((((.(....).)))))

>  <Label Class>
F

$$$$
>  <Biopolymer Sequence>
GAGCGCGGAAACACGCCC (.(((.(....).))).)

>  <Label Class>
F

$$$$
>  <Biopolymer Sequence>
GTCGCCGAAAGGCCTGAC ((((((....)))..)))

>  <Label Class>
F

$$$$
>  <Biopolymer Sequence>
GCAACCGAAAGGTTCTGC ((((((....)))..)))

>  <Label Class>
F

$$$$
>  <Biopolymer Sequence>
GGACTCGAAAGAGGTCC ((((((....))).)))

>  <Label Class>
T

$$$$

----------
Assay Overview: folding enthalpy; higher = less favourable; fluorescence melt of hairpins on a sequencing array, two-state fit
Settings: sodium 0.088 M
Decision: folding enthalpy >= -30 kcal/mol yields True, all other cases yield False.

>  <Biopolymer Sequence>
CGGAACGGAAACGTGCCG (((.(((....))).)))

>  <Label Class>
False

$$$$
>  <Biopolymer Sequence>
GATCGTACCGACGATC ((((((....))))))

>  <Label Class>
False

$$$$
>  <Biopolymer Sequence>
GTCTATGGAAACGTAGAC (((((.(....).)))))

>  <Label Class>
False

$$$$
>  <Biopolymer Sequence>
GCTAAGCGAAAGCGTAGC ((((.((....)).))))

>  <Label Class>
True

$$$$
>  <Biopolymer Sequence>
GATCCACCGTGGATC ((((((...))))))

>  <Label Class>
False

$$$$
>  <Biopolymer Sequence>
GTAACCGGAAACGGTCAC ((.((((....)))).))

>  <Label Class>
True

$$$$
>  <Biopolymer Sequence>
GGCCTTGAAAAAGGCC ((((((....))))))

>  <Label Class>
False

$$$$
>  <Biopolymer Sequence>
GGTGTCCGAAAGGATACC (((.(((....))).)))

>  <Label Class>
False

$$$$
>  <Biopolymer Sequence>
GCAGACGAAAGTCTTGC ((((((....))).)))

>  <Label Class>
True

$$$$
>  <Biopolymer Sequence>
CACTTGAAAAAGTG (((((....)))))

>  <Label Class>
True

$$$$
>  <Biopolymer Sequence>
GGGGTTGGAAACAACCTC (.(((((....))))).)

>  <Label Class>
False

$$$$
>  <Biopolymer Sequence>
GGGGCAACGAAAGTTCCC (((..(((....))))))

>  <Label Class>
True

$$$$
>  <Biopolymer Sequence>
CGAGACCGGAAACGGTCG (((..(((....))))))

>  <Label Class>
True

$$$$
>  <Biopolymer Sequence>
GCTCAGCGAAAGCACAGC (((..((....))..)))

>  <Label Class>
True

$$$$
>  <Biopolymer Sequence>
GTTGAGGGAAACCTTGAC ((..(((....)))..))

>  <Label Class>
True

$$$$
>  <Biopolymer Sequence>
GATCTTGCCTAAGATC ((((((....))))))

>  <Label Class>
False

$$$$
>  <Biopolymer Sequence>
GGCGACGAAAGTCTTGCC ((((((....)))..)))

>  <Label Class>
True

$$$$
>  <Biopolymer Sequence>
GACTCCGGAAACGGGGTC (((.(((....))).)))

>  <Label Class>
False

$$$$
>  <Biopolymer Sequence>
GCGGTGGGAAACTGCCGC ((((..(....)..))))

>  <Label Class>
False

$$$$
>  <Biopolymer Sequence>
GAGTGCCCGAAAGGGCTC (((..(((....))))))

>  <Label Class>
True

$$$$
>  <Biopolymer Sequence>
GAGTACGAAAGTATTCTC ((((((....)))..)))

>  <Label Class>
True

$$$$
>  <Biopolymer Sequence>
GGGACGACGAAAGTCCCC (((..(((....))))))

>  <Label Class>
True

$$$$
>  <Biopolymer Sequence>
GATCAGAAACTGATC ((((((...))))))

>  <Label Class>
False

$$$$
>  <Biopolymer Sequence>
GCAAGGCGAAAGCCCAGC ((..(((....)))..))

>  <Label Class>
True

$$$$
>  <Biopolymer Sequence>
GATCATAACCATGATC ((((((....))))))

>  <Label Class>
False

$$$$
>  <Biopolymer Sequence>
GTGGATGGAAACATTCGC (.(.(((....))).).)

>  <Label Class>
True

$$$$
>  <Biopolymer Sequence>
GCTAATGAAAATTAGC ((((((....))))))

>  <Label Class>
False

$$$$
>  <Biopolymer Sequence>
GGCTTTGGAAACAGAGTC (.((.((....)).)).)

>  <Label Class>
True

$$$$
>  <Biopolymer Sequence>
GCCTAGCGAAAGCAACGC ((.(.((....)).).))

>  <Label Class>
True

$$$$
>  <Biopolymer Sequence>
GCGTGTGGAAACGTACGC ((((..(....)..))))

>  <Label Class>
False

$$$$
>  <Biopolymer Sequence>
GCTAAGCGAAAGCTAGGC ((..(((....)))..))

>  <Label Class>
True

$$$$
>  <Biopolymer Sequence>
GCGCCCGAAAGGGATCGC ((((((....)))..)))

>  <Label Class>
True

$$$$
>  <Biopolymer Sequence>
GATCGGACTACCGATC ((((((....))))))

>  <Label Class>
False

$$$$
>  <Biopolymer Sequence>
GACACACGAAAGTGGGTC (((.(((....))).)))

>  <Label Class>
False

$$$$
>  <Biopolymer Sequence>
GGTACCGGAAACAGTACC (((((.(....).)))))

>  <Label Class>
False

$$$$
>  <Biopolymer Sequence>
GATCCTGACTAGGATC ((((((....))))))

>  <Label Class>
False

$$$$
>  <Biopolymer Sequence>
GTAACCGAAAGGTCTTAC ((((((....)))..)))

>  <Label Class>
True

$$$$
>  <Biopolymer Sequence>
GATCCATTAATGGATC ((((((....))))))

>  <Label Class>
False

$$$$
>  <Biopolymer Sequence>
GAACTCCCGAAAGGGTTC (((..(((....))))))

>  <Label Class>
True

$$$$
>  <Biopolymer Sequence>
GCGCTCACGAAAGTGCGC (((..(((....))))))

>  <Label Class>
False

$$$$
>  <Biopolymer Sequence>
GTAATCGAAAGATTATAC ((((((....)))..)))

>  <Label Class>
True

$$$$
>  <Biopolymer Sequence>
GGGGAGGGAAACTTCCCC (((((.(....).)))))

>  <Label Class>
False

$$$$
>  <Biopolymer Sequence>
GTCAACCGAAAGGTAGAC (((.(((....))).)))

>  <Label Class>
False

$$$$
>  <Biopolymer Sequence>
GCGCTGCGAAAGCACGC (((.(((....))))))

>  <Label Class>
True

$$$$
>  <Biopolymer Sequence>
GATCTCTGGCGAGATC ((((((....))))))

>  <Label Class>
False

$$$$
>  <Biopolymer Sequence>
GATGCCCGAAAGGGATC (((.(((....))))))

>  <Label Class>
True

$$$$
>  <Biopolymer Sequence>
GGTGGTCGAAAGACAACC (((.(((....))).)))

>  <Label Class>
False

$$$$
>  <Biopolymer Sequence>
GATCTCTGTAGAGATC ((((((....))))))

>  <Label Class>
False

$$$$
>  <Biopolymer Sequence>
GACAACGAAAGTTTCGTC ((((((....)))..)))

>  <Label Class>
True

$$$$
